src = ChEMBL document CHEMBL3994582

biological target: Adenosine receptor A3 (Homo sapiens) (UniProt P0DMS8); assay: Displacement of [3H]-HEM-ADO from human adenosine receptor A3 expressed in HEK293 cell membranes at 1 uM after 90 mins by liquid scintillation counting method relative to control
Sequence (P0DMS8 whole entry): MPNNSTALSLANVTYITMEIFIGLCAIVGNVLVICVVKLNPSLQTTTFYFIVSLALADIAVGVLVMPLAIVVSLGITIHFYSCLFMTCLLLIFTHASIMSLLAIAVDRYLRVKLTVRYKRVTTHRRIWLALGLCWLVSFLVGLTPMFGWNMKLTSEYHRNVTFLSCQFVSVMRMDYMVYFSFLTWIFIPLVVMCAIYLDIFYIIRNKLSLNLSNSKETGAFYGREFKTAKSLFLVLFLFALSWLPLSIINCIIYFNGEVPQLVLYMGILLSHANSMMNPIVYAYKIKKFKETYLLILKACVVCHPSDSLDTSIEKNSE

| compound | inhibition, % |
| --- | --- |
| CCCn1c(=O)c2[nH]c(-c3cnn(CC4CC(=O)N(c5cccc(F)c5)C4)c3)nc2n(CC)c1=O (stereo not drawn) | 0 |
| CCCn1c(=O)c2[nH]c(-c3cnn(CC4CC(=O)N(c5cccc(OC(F)(F)F)c5)C4)c3)nc2n(CCC)c1=O (stereo not drawn) | 0 |
| CCCn1c(=O)c2[nH]c(-c3ccc(OCC4CC(=O)N(c5ccc(C(F)(F)F)cc5)C4)nc3)nc2n(CCC)c1=O (stereo not drawn) | 0 |
| CCCn1c(=O)c2[nH]c(-c3cnn(CC4CC(=O)N(c5ccc(F)cc5F)C4)c3)nc2n(CCC)c1=O (stereo not drawn) | 0 |
| CCCn1c(=O)c2[nH]c(-c3cnn(CC(=O)N4CCN(c5ccc(F)c(Cl)c5)CC4)c3)nc2n(CCC)c1=O | 17 |
| CCCn1c(=O)c2[nH]c(-c3cc(OCC4CC(=O)N(c5ccc(F)cc5)C4)no3)nc2n(CCC)c1=O (stereo not drawn) | 7 |
| CCCn1c(=O)c2[nH]c(-c3cnn(CC(=O)N4CCN(c5ccc(C(F)(F)F)cc5)CC4)c3)nc2n(CCC)c1=O | 11 |
| CCCn1c(=O)c2[nH]c(-c3cnn(CC4CC(=O)N(c5cccc(OC)c5)C4)c3)nc2n(CCC)c1=O (stereo not drawn) | 11 |
| CCCn1c(=O)c2[nH]c(-c3cnn(CC4CC(=O)N(c5ccc(C)cc5)C4)c3)nc2n(CCC)c1=O (stereo not drawn) | 0 |
| CCCn1c(=O)c2[nH]c(-c3cnn(CC4CCN(c5ccc(C)cc5)C4)c3)nc2n(CCC)c1=O (stereo not drawn) | 2 |
| CCCn1c(=O)c2[nH]c(-c3ccc(OCC4CC(=O)N(c5cccc(F)c5)C4)cc3)nc2n(CCC)c1=O (stereo not drawn) | 19 |
| CCCn1c(=O)c2[nH]c(-c3cnn(CC4CC(=O)N(c5ccc(F)cc5)C4)c3)nc2n(CC)c1=O (stereo not drawn) | 0 |
| CCCn1c(=O)c2[nH]c(-c3ccc(OCC4CC(=O)N(c5ccc(C(F)(F)F)cc5)C4)cc3)nc2n(CCC)c1=O (stereo not drawn) | 23 |
| CCCn1c(=O)c2[nH]c(-c3cnn(CC4CCN(c5cccc(C(F)(F)F)c5)C4=O)c3)nc2n(CCC)c1=O (stereo not drawn) | 17 |
| CCCn1c(=O)c2[nH]c(-c3ccc(OCC4CC(=O)N(c5cccc(F)c5)C4)nc3)nc2n(CCC)c1=O (stereo not drawn) | 53 |
| CCCn1c(=O)c2[nH]c(-c3cnn(CC4CC(=O)N(c5ccc(C#N)cc5)C4)c3)nc2n(CCC)c1=O (stereo not drawn) | 2 |
| CCCn1c(=O)c2[nH]c(-c3cnn(CC4CC(=O)N(c5ccc(C(F)(F)F)cc5)C4)c3)nc2n(CCC)c1=O (stereo not drawn) | 0 |
| CCCn1c(=O)c2[nH]c(-c3cnn(CCC4CC(=O)N(c5cccc(C(F)(F)F)c5)C4)c3)nc2n(CCC)c1=O (stereo not drawn) | 29 |
| CCCn1c(=O)c2[nH]c(-c3cnn(CC4CC(=O)N(c5cccc(C)c5)C4)c3)nc2n(CCC)c1=O (stereo not drawn) | 0 |
| CCCn1c(=O)c2[nH]c(-c3cnn(CC4CCN(c5ccc(OC(F)(F)F)cc5)C4=O)c3)nc2n(CCC)c1=O (stereo not drawn) | 32 |
| CCCn1c(=O)c2[nH]c(-c3cnn(CC(O)C4CC(=O)N(c5cccc(C(F)(F)F)c5)C4)c3)nc2n(CCC)c1=O (stereo not drawn) | 27 |
| CCCn1c(=O)c2[nH]c(-c3cnn(CC4CC(=O)N(c5ccc(C(F)(F)F)cc5)C4)c3)nc2n(CC)c1=O (stereo not drawn) | 4 |
| CCCn1c(=O)c2[nH]c(-c3cnn(CC4CC(=O)N(c5ccc(F)cc5)C4)c3)nc2n(CCC)c1=O (stereo not drawn) | 14 |
| CCCn1c(=O)c2[nH]c(-c3cnn(CC4CCN(c5ccc(OC)cc5)C4)c3)nc2n(CCC)c1=O (stereo not drawn) | 3 |
| CCCn1c(=O)c2[nH]c(-c3cnn(CC4CC(=O)N(c5ccc(OC)cc5)C4)c3)nc2n(CCC)c1=O (stereo not drawn) | 27 |
| CCCn1c(=O)c2[nH]c(-c3cnn(CC4CC(=O)N(c5cccc(C(F)(F)F)c5)C4)c3)nc2n(CC)c1=O (stereo not drawn) | 0 |
| CCCn1c(=O)c2[nH]c(-c3cnn(CC4CCN(c5ccc(OC(F)(F)F)cc5)C4)c3)nc2n(CCC)c1=O (stereo not drawn) | 2 |
| CCCn1c(=O)c2[nH]c(-c3cnn(CC4CC(=O)N(c5cccc(C(F)(F)F)c5)C4)c3)nc2n(CCC)c1=O (stereo not drawn) | 31 |
